# assayedTarget: human TMEM106B (human, UniProt Q9NUM4 2-274); further: test concentration or dose not given here
# methodNotes: cell-based or functional assay
Give % Protection from CPE for every item shown.
All answers are understood in %, so give the number only.

Request: State the recorded % Protection from CPE for this entry: TM-80 (antibody, V domains shown) VH: QVQLQQPGAELVKPGASVKLSCKASGYTFTTFWMHWVKQRPGQGLEWIGNIDPSDSETHYNQEFKDKATLTVDRSSNTAYMQLSSLTSEDSAVYYCARSSNWDNFDYWGQGTAVTVSS VL: DIVMTQAAPSVPVTPGESVSISCRSSQSLLHVNGHTYLYWFLQRPGQSPQLLIYRMSNLASGVPDRFSGSGSGTVFTLRISRVETEDVGIYYCMQHLQYPFTFGSGTKLEIK
Response: 78

Request: State the recorded % Protection from CPE for this entry: TM-10 (antibody, V domains shown) VH: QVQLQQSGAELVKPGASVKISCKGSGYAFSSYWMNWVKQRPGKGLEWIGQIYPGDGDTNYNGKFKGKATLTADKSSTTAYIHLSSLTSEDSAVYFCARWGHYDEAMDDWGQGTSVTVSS VL: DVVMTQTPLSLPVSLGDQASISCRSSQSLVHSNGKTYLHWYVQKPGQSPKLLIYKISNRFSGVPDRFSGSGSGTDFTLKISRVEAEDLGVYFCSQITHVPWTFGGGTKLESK
Response: 93.3

Request: State the recorded % Protection from CPE for this entry: TM-78 (antibody, V domains shown) VH: QVQLQQPGAELVKPGASVKLSCKASGYTFTNHWMHWVRQRPGQGLEWIGNIDPSDSDTHYNHKFKDKATLIVDKSSSTAYLQLSSLTSEDSAVFYCARSRGGYYDYGEAMDYWGQGTSVTVSS VL: DIVMTQATPSIPVTPGESVSISCRSSKSLLHVNGNTYLFWFLQRPGQSPQLLIYRMSNLASGVPDRFSGSGSGTAFTLRISRVEAEDVGVYYCMQHLEYPFTFGSGTKLEIK
Response: 91.1

Request: State the recorded % Protection from CPE for this entry: TM-48 (antibody, V domains shown) VH: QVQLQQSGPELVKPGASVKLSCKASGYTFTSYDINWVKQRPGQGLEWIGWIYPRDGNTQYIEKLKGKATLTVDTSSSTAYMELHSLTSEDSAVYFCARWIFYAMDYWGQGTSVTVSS VL: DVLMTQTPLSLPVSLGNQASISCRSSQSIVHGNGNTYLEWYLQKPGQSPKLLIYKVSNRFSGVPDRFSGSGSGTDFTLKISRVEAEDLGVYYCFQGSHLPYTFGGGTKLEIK
Response: 89.3

Request: State the recorded % Protection from CPE for this entry: TM-74 (antibody, V domains shown) VH: EVQLQQSGPELVKPGASVKMSCKASGYTFTSYVIHWVKQKPGQGLEWIGFINPNNDGTKYNEKFRGKATLTSDKSSSTAYMELSSLTSEDSAVYYCARPYYDYEGYTMDYGGQGTSVTVSS VL: DVVMTQSQKFMSTSVEDRVSITCKASQNVRSAVAWYQQKPGQSPKALIYLASNRHTGVPDRFAGSGSGTDFTLTISSVQSEDLADYFCLQHWKYPFTFGSGTKLEIK
Response: 3.7
